Test system: COLO 205 colon
Protocol notes: NCI-60 one-dose screen, 48 h (100 = growth as untreated, 0 = no growth, -100 = all killed)
Condition set: 10 µM unless noted
This is part of a sample that, as a whole, favours compounds with a hit. Of some 83,000 tested, about 20% had one in any assay.
Assignment: determine reported growth for the given molecules.
One number for each entry, in %.

I'm hoping you can list growth for every molecule here, please.
1. OC[C@@H](O)[C@@H](O)CO
2. COc1ccc(C2CC(c3cc(OC)c(OC)c(OC)c3)=NN2c2ccc(S(N)(=O)=O)cc2)cc1 (stereo not given)
3. Cc1nc2cc(Nc3nc(Nc4ccc(F)cc4)nc(N4CCN(C)CC4)n3)ccc2n1Cc1ccccc1

111
75.6
-55.5

====

Test system: A549/ATCC NSCLC
Protocol notes: NCI-60 one-dose screen, 48 h (100 = growth as untreated, 0 = no growth, -100 = all killed)
Condition set: 10 µM unless noted
About 83,000 compounds went through this panel and 20% of them were active in at least one assay; those are over-represented in the sample as a whole.
Labelling: growth reported below 50% becomes Satisfied; at or above becomes Not satisfied.

COC(=O)c1c2c(c(C)[n+]([O-])c1C)C(=O)C(NCc1ccc(O)cc1)=CC2=O; Satisfied

Record O=C1/C(=C/c2ccc(Cl)cc2)CN(Cc2cn(CCCNc3ccnc4cc(Cl)ccc34)nn2)C/C1=C\c1ccc(Cl)cc1 : is its growth strictly below 50%?
Satisfied

Record N#Cc1c(-c2cccc(F)c2)cc(-c2ccc(Br)s2)[nH]c1=O : is its growth strictly below 50%?
Not satisfied

Record Cc1cc(NS(=O)(=O)c2ccc(NC(=O)COc3ccc(-c4cc5ccccc5[nH]4)cc3)cc2)no1 : is its growth strictly below 50%?
Satisfied

Record C=C[C@H]1C[C@@H]2C[C@@H]3[C@H]4C/C=C\C(=O)NCCCC5NC(=O)C(=C(O)/C=C/[C@@H]4CC(=O)[C@H]3[C@@H]2[C@H]1C)C5=O (some centres undefined) : is its growth strictly below 50%?
Satisfied

Record Cn1cc(C(=O)NCCC(=N)N)cc1NC(=O)CN=C(N)N : is its growth strictly below 50%?
Not satisfied

====

Assignment: determine reported growth for the given compounds.
System: SK-OV-3 ovarian
Protocol notes: NCI-60 one-dose screen, 48 h (100 = growth as untreated, 0 = no growth, -100 = all killed)
Condition set: 10 µM
About 83,000 compounds went through this panel and 20% of them were active in at least one assay; those are over-represented in the sample as a whole.
One number for each entry, in %.

NC(=O)c1cc(Cl)ccc1NC(=O)COc1ccccc1; 62.8
Cc1nc2cc(Nc3nc(Cl)nc(Nc4ccc(F)cc4)n3)ccc2n1Cc1ccccc1; 95.9
NC1=NC(c2ccccc2OS(=O)(=O)c2ccc(Br)cc2)n2c(nc3ccccc32)N1 (stereo unspecified); 105
COc1cccc(Nc2nc(NCCO)c3ccccc3n2)c1; 102
CS(=O)(=O)Nc1cccc(C(=O)NCc2ccc(N3CCOCC3)cc2)c1; 107

With those in mind, consider the next compound.
Requested field: growth. Item: COC(=O)c1ccc(C(=O)Nc2ccccc2N)cc1
92.6

====

Assignment: determine reported growth for the given compounds.
System: HS 578T breast
Protocol notes: NCI-60 one-dose screen, 48 h (100 = growth as untreated, 0 = no growth, -100 = all killed)
Condition set: 10 µM unless noted
This is part of a sample that, as a whole, favours compounds with a hit. Of some 83,000 tested, about 20% had one in any assay.
One number for each entry, in %.

Solved entries (count: 5):
COc1ccc(OC)c2ncccc12; 107
C(=C\c1ccccc1)/CN1CCN(C(c2ccccc2)c2ccccc2)CC1; 93.4
O=C(N/N=C(\CS(=O)(=O)c1ccccc1)c1cc2ccccc2oc1=O)c1ccccc1; 106
N#C/C(=C\c1ccc[nH]1)c1cc2ccccc2[nH]1; 87.5
Cn1c2ccccc2c2nn(C(=O)c3ccccc3)c(=O)nc21; 105

Requested field: growth. Item: O=C1N/C(=C\c2ccccc2)c2ncccc21
120
